- Test details: basal RPMI8226 viability, no added stimulus, profiling panel, cell-based, calcein-AM fluorescence, 48 h, PK04 Diversity Set (AID 1166);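 further: cells grown under basal conditions without added stimulus; test concentration not given here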
- Condition info: RPMI8226 myeloma viability, higher = more signal
Here the recorded z-score is given for each entry.
Write the number on its own, no unit after it.

C=C(/C(=C/C[C@@H](OC(C)=O)c1ccc(CO)o1)c1cc(C(=O)OC)ccc1OC)C(C)C; 0.0028
COc1ccc(C(O)C2C=CC3C(=O)N(c4ccccc4)C(=O)C3N2Nc2ccccc2F)cc1 (stereo unspecified); -2.08
CCOC(=O)C1=C[C@@H](c2ccccc2)N(S(=O)(=O)c2ccc(C)cc2)[C@H]1c1ccccc1; -1.16
CCOC(=O)C[C@H]1[C@H](OC(=O)c2cc3ccccc3oc2=O)[C@@H](NC(=O)c2ccc3ccccc3c2)c2cc(OCCCO)ccc2N1C(=O)Cc1ccc(OC)cc1; 0.0557
C=CCNC(=O)[C@H]1[C@@H]2C(=O)O[C@@H](c3ccccc3)[C@@H](c3ccccc3)N2[C@@H](c2ccc(OCCO)cc2)[C@]12C(=O)Nc1ccc(C#CCNC(N)=O)cc12; -0.062

Requested field: z-score. Item: COCCCNC(=O)[C@@]1(Sc2ccc(C)cc2)CC(=O)N(Cc2ccccc2Cl)[C@@H]1c1ccc(CO)cc1I -2.32

Bench note: what z-score did CC(C)(C)OC(=O)CC[C@]12N=C(c3ccc(OCCCO)cc3)O[C@H]1c1ccccc1N(Cc1ccccc1)C2=O show? -4.27

For COc1cc(NN2C(C(O)C3CCCCC3)C=CC3C(=O)N(C)C(=O)C32)cc(OC)c1OC (stereo unspecified) , what is its reported z-score? 0.436

Can you look up the measured z-score of COCC(=C=CC[C@@H](O)c1cccc(OCCO)c1)CCO for me? -0.0681

For CCc1cccc(NC(=O)O[C@H]2[C@H](OC(=O)Nc3ccccc3)[C@H](OC(=O)Nc3ccccc3)[C@@H](OC)O[C@@H]2CO)c1 , what is its reported z-score? -4.3

Fill in the blank: the reported z-score of CC(C)OC(=O)CC(=O)CC(O)c1ccc([N+](=O)[O-])cc1 (stereo unspecified) is ____. 0.159

Given the entry CCCNC(=O)[C@@]1(C)c2ccccc2C(=O)N(Cc2ccccc2)[C@H]1c1ccc(CO)cc1 , report its measured z-score. 0.485

So what does the record say about z-score for O=C1O[C@H](c2ccccc2)[C@H](c2ccccc2)N2[C@H]1[C@@H](C(=O)O)[C@]1(C(=O)Nc3ccc(C#CC4(O)CCCCCC4)cc31)[C@H]2c1ccc(O)cc1 ? 0.265

----------
- Tested on: E3 ubiquitin-protein ligase XIAP (Homo sapiens)
- Test details: XIAP binders, primary screen, biophysical, small-molecule microarray, fluorescence 635 nm (AID 1181);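 further: score merges 667 nm emission and signal to noise over triplicate slides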
- Condition info: small-molecule microarray binding, higher = more signal
Measured endpoint: composite z-score
Lab note: record just the number, no unit beside it.

Sample answers from the record:
O=C(NCCN1CCOCC1)[C@@H]1c2ccccc2C(=O)N(Cc2ccccc2)[C@H]1c1ccc(CO)cc1; -0.0228
CC(C)c1ccc(NN2C(C(O)Cc3ccccc3)C=CC3C(=O)N(c4ccccc4)C(=O)C32)cc1 (stereo not given); 0.0989
COCCCNC(=O)[C@@]1(c2ccc([N+](=O)[O-])cc2)CC(=O)N(C(C)C)[C@@H]1c1ccc(CO)cc1; 0.0223
O=C1C2C=CC(C(O)c3cc(C(F)(F)F)cc(C(F)(F)F)c3)N(Nc3ccccc3F)C2C(=O)N1c1ccccc1 (stereo not given); 0.0264
O=C1OCCC/C=C\[C@H]2OC34C=CCN(c5ccc6ccccc6c5)C(=O)[C@H]3N(CCCO)C(=O)[C@@H]4C12 (stereo not given in full); -0.332

Suppose we examine the compound CN(C)CCCCCCNC(=O)[C@@H]1C[C@@H]2C(=O)N[C@@H](CCCCN)C(=O)N2[C@@H]1c1ccc(O)cc1 ; what composite z-score value has been reported? 3.51

Reported composite z-score, compound CCOC(=O)C[C@H]1[C@H](OC(=O)c2ccc(C(=O)c3ccccc3)cc2)[C@@H](NC(=O)CC(C)C)c2cc(OCCCO)ccc2N1C(=O)Cc1ccc(OC)cc1 : ____ -0.289

Which composite z-score is reported for this compound? Cc1ccc([C@H]2C(C(=O)O)=C[C@@H](C(C)(C)C)N2S(=O)(=O)c2ccc(C)cc2)cc1 0.193

Which composite z-score value belongs to O=C1[C@@H]2[C@@H](CC(COc3ccccc3)=C3[C@@H](CCc4ccccc4)OB(O)C[C@@H]32)C(=O)N1Cc1ccccc1 ? -0.16

Give the measured composite z-score of CCCNC(=O)[C@@]1(Sc2ccc(C)cc2)CC(=O)N(C(C)C)[C@@H]1c1ccc(CO)cc1I . -0.039

Give its composite z-score value. Item: O=C1C[C@@](C(=O)NCC(F)(F)F)(c2ccc([N+](=O)[O-])cc2)[C@@H](c2ccc(CO)cc2)N1CC12CC3CC(CC(C3)C1)C2 0.144

Returns the measured composite z-score for the input compound. Input: CCOC(=O)C1=C[C@@H](C(C)(C)C)N(S(=O)(=O)c2ccc(C)cc2)[C@H]1c1ccc(C)cc1 -0.0017

Query (compound): CCOC(=O)C[C@H]1[C@H](OC(=O)c2ccccc2-c2ccccc2)[C@@H](NC(=O)c2ccccc2)c2cc(OCCCO)ccc2N1C(=O)c1ccccc1 ; field requested: composite z-score 0.0871

Which composite z-score reading was recorded for the compound COc1cc(NN2C(C(O)c3ccc(I)cc3)C=CC3C(=O)N(c4ccccc4)C(=O)C32)cc(OC)c1OC (stereo not given) ? 0.162

Using the record for COC(=O)[C@@]1(Cc2ccc(F)cc2)[C@H]2c3cc(C(=O)N4CCCC4)n(CC4CC4)c3C[C@H]2CN1C(=O)c1ccccc1 , report its composite z-score. 0.705

What composite z-score value was documented for this compound, C=CCC(OC(C)=O)[C@@H]1[C@@H](N(Cc2cccc3ccccc23)C(=O)c2cccc3ccccc23)c2cc(OCCCO)ccc2N1C(=O)c1ccc2ccccc2c1 (stereo not given in full) ? -0.179

Fill in: composite z-score of COC(=O)[C@@]1(Cc2ccccc2CN=[N+]=[N-])N=C(c2ccc(OCCCO)cc2)O[C@H]1c1ccccc1 is ___ 0.162

Which composite z-score is reported for this compound? Cc1ccc(S[C@]2(C(=O)NC(C)C)CC(=O)N(Cc3ccccc3Cl)[C@@H]2c2ccc(CO)cc2)cc1 -0.0072

Which composite z-score value belongs to COCCOC(=O)N1C(=O)[C@@]2(c3cc(C#CCNC(N)=O)ccc31)[C@H](c1ccc(OCCO)cc1)N1[C@H](c3ccccc3)[C@H](c3ccccc3)OC(=O)[C@H]1[C@@H]2C(N)=O ? -0.0414

// returns reported composite z-score for input [N-]=[N+]=Nc1ccccc1C[C@@]1(C(=O)O)N=C(c2ccc(OCCCO)cc2)O[C@@H]1c1ccccc1N=[N+]=[N-] -0.0374
